From various publications: Ki for Carbonic anhydrase 12 (Homo sapiens, UniProt O43570).
Expressed in nM, but write only the number.

{"Molecule": "O=C1c2ccccc2C(=O)N1CN1C(=O)c2ccccc2S1(=O)=O", "Ki (nM)": 13400}
{"Molecule": "CCOc1ccc(S(=O)(=O)NC(C)(CO)CO)cc1-c1nnc2c(n1)c(C)nn2C", "Ki (nM)": 40.9}
{"Molecule": "CC(C)c1ccccc1NC(=O)Nc1ccc(S(N)(=O)=O)cc1", "Ki (nM)": 4.2}
{"Molecule": "O=C(NO)[C@H]1C[C@H](NS(=O)(=O)c2ccc(-c3ccccc3)cc2)CN1S(=O)(=O)c1ccc(Cl)c(Cl)c1", "Ki (nM)": 98500}
{"Molecule": "CC(=O)N1N=C(c2cccc(OS(N)(=O)=O)c2)CC1c1ccc([N+](=O)[O-])cc1 (centres undefined)", "Ki (nM)": 20.8}

Assay Carbonic anhydrase 12 (Homo sapiens, UniProt O43570), sample "NS(=O)(=O)c1ccc(N2C(=O)[C@H]3CC=CC[C@H]3C2=O)cc1" , Ki read: 0.57

Tested on Carbonic anhydrase 12 (Homo sapiens, UniProt O43570): "CCCC(=O)OC[C@H]1O[C@@H](n2cc(-c3ccc(S(N)(=O)=O)cc3)nn2)[C@H](OC(=O)CCC)[C@@H](OC(=O)CCC)[C@H]1OC(=O)CCC" . Observed Ki: 9.5

Tested system Carbonic anhydrase 12 (Homo sapiens, UniProt O43570); Ki recorded for COC(=O)C(Cc1ccccc1)NC(=O)Nc1cccc(S(N)(=O)=O)c1 (centres undefined) was 275

"NS(=O)(=O)c1ccc(NC(=S)N[C@@H]2O[C@H](CO)[C@@H](O[C@H]3O[C@H](CO)[C@@H](O)[C@H](O)[C@H]3O)[C@H](O)[C@H]2O)cc1" tested on Carbonic anhydrase 12 (Homo sapiens, UniProt O43570) gave Ki: 300

Record "NS(=O)(=O)c1ccc(C(=O)OCCCCO[N+](=O)[O-])cc1" ; system Carbonic anhydrase 12 (Homo sapiens, UniProt O43570); Ki = 30
